For each of the compounds below, state its T/C.
test system: BDF1 mice, P388 leukemia ip, median survival T/C; test: NCI In Vivo Anticancer Drug Screen. Data for tumor model P388 Leukemia (intraperitoneal) in B6D2F1 (BDF1) mice; conditions: endpoint: median survival time; dose: 50.0 mg/kg/injection; schedule: Q01DX009 (ip); vehicle: saline; higher = longer survival
Toxic doses and inconclusive results are not listed.

Required: T/C, one value per compound below.
1. CN(C)N=Nc1cn(C2OC(CO)C(O)C2O)c(=O)[nH]c1=O (configuration not stated)
2. CC1(C)N=C(N)N=C(N)N1c1ccc(CCCCc2ccc(Cl)c(S(=O)(=O)F)c2)c(Cl)c1
3. C=CCOCC1CO1 (configuration not stated)
4. CCN1CC=CCC1
5. CN(C)Cc1c[nH]c2nccnc12
6. CN=C1N[N+]2=C(C)CCCC2S1 (configuration not stated)
7. ClCCCCCCCCc1ccccc1

1. 120 % of control
2. 104 % of control
3. 100 % of control
4. 100 % of control
5. 100 % of control
6. 91 % of control
7. 107 % of control

###

test system: BDF1 mice, P388 leukemia ip, median survival T/C; test: NCI In Vivo Anticancer Drug Screen. Data for tumor model P388 Leukemia (intraperitoneal) in B6D2F1 (BDF1) mice; settings: endpoint: median survival time; dose: 50.0 mg/kg/injection; schedule: Q01DX005 (ip); vehicle: saline with Tween-80; higher = longer survival
Toxic doses and inconclusive results are not listed.
MEASURED_ENDPOINT: T/C

Sample answers from the record:
• COC(=O)C1C(=O)COC1C (stereo not drawn) = 110 % of control
• CC(=O)OC(=O)C(Cc1ccccc1)NC(=O)C(N)CCCN=C(N)N (stereo not drawn) = 98 % of control
• CC1(C)OC(C)(C)c2c1nnc(-c1ccccc1[N+](=O)[O-])[n+]2[O-] = 93 % of control
• CS(=O)(=O)c1ncc(Br)cn1 = 103 % of control
• CN(C)CC(=O)Nc1nc(-c2ccc(Cl)cc2)cs1 = 101 % of control

Required: T/C, one value per molecule below.
1. O=C(O)C1CCCN1C(=O)c1ccc(Cl)c(Cl)c1 (stereo not drawn)
2. O=C(CN1CCOCC1)Nc1nc(-c2ccc(Cl)cc2)cs1
3. C1=C(c2ccccc2)OC(c2ccccc2)C1c1ccccc1 (stereo not drawn)

["100 % of control", "110 % of control", "94 % of control"]

###

For each of the compounds below, state its T/C.
tested on: BDF1 mice, P388 leukemia ip, median survival T/C; experiment: NCI In Vivo Anticancer Drug Screen. Data for tumor model P388 Leukemia (intraperitoneal) in B6D2F1 (BDF1) mice; settings: endpoint: median survival time; dose: 100.0 mg/kg/injection; schedule: Q04DX003 (ip); vehicle: saline; higher = longer survival
Inconclusive results and toxic doses are left out.

Sample answers from the record:
- COc1ccc(/C=C(/C#N)C(N)=O)cc1Br: 100 % of control
- CC(CS(=O)(=O)O)N1CCN(CCO)CC1 (configuration not stated): 95 % of control
- COc1ccc(C=[N+](C)CCc2ccc(OC)c(OC)c2)cc1OC: 102 % of control
- O=C1NC(O)CCN1C1OC(CO)C(O)C1O (configuration not stated): 116 % of control
- O=C(O)C(O)C(O)C(=O)O (configuration not stated): 91 % of control

Required: T/C, one value per compound below.
1. CC([NH-])C(=O)O.O=C(O)CN(CC(=O)O)CC(=O)O.[Co+2]
2. N#CCCCCNC(=O)C1CCC(=O)N1 (configuration not stated)
3. C[n+]1ccc(Nc2ccc(NC(=O)c3ccc(C(=O)Nc4ccc(Nc5cc[n+](C)c(N)n5)cc4)cc3)cc2)nc1N
4. Cc1ccccc1C(c1ccccc1C)c1ccccc1C(=O)O

1: 87 % of control; 2: 111 % of control; 3: 172 % of control; 4: 91 % of control

Required: T/C, one value per compound below.
1. N=Cc1c(O)[nH]c(=O)[nH]c1=O
2. COc1cc(CN2CCCN(Cc3cc(OC)c(OC)c(OC)c3)C2c2ccc(N(CCCl)CCCl)cc2C)cc(OC)c1OC
3. CC1=C(Br)C(=O)C(c2c(C)cc(C)cc2C)=C(Br)C1=O
4. Cc1cc([N+](=O)[O-])cc(C)c1OC(=O)c1ccc(N=C(N)N)cc1

1. 92 % of control
2. 104 % of control
3. 97 % of control
4. 95 % of control

###

Test system: BDF1 mice, P388 leukemia ip, median survival T/C
Experiment: NCI In Vivo Anticancer Drug Screen. Data for tumor model P388 Leukemia (intraperitoneal) in B6D2F1 (BDF1) mice
Conditions: endpoint: median survival time; dose: 1.56 mg/kg/injection; schedule: Q01DX009 (ip); vehicle: water
Method: The antitumor activity of compounds was measured in mice bearing transplantable tumors. Survival or tumor size were measured and the results are expressed as the measurement made in the treated group (T) divided by the measurement made in the vehicle treated control group (C). The tumor model used in this assay is P388 Leukemia (intraperitoneal) in B6D2F1 (BDF1) mice
Inconclusive results and toxic doses are left out. The calls were made as follows: active = survival T/C of 150% or more; inactive = T/C below 125% in these data.
Entry note: the call must match one of active, inactive

Illustrative cases are given below, each with its answer.
• c1ccc(CN(CCNc2ccccc2)c2ccccc2)cc1 = inactive
• CCOC(=O)Nc1nc(Cl)c(Cl)nc1Cl = inactive
• COc1cccc2c1C(=O)c1c(O)c3c(c(O)c1C2=O)C[C@@](O)(C(=O)CO)C[C@@H]3OC1CC(N)C(O)C(C)O1 (stereo not given in full) = active
• NC(N)=Nc1ccc(C(=O)Oc2ccc([N+](=O)[O-])cc2CN2CCCCC2)cc1 = inactive

Kindly review the next compound as well.
Hi, do you know how O=C1c2ccccc2C(=O)N1CC[P+](c1ccc(Cl)cc1)(c1ccc(Cl)cc1)c1ccc(Cl)cc1 came out in this test? inactive

###

For each of the compounds below, state its T/C.
Test system: BDF1 mice, P388 leukemia ip, median survival T/C
Assay: NCI In Vivo Anticancer Drug Screen. Data for tumor model P388 Leukemia (intraperitoneal) in B6D2F1 (BDF1) mice
Conditions: endpoint: median survival time; dose: 400.0 mg/kg/injection; schedule: Q04DX003 (ip); vehicle: saline with Tween-80; higher = longer survival
Experimental: The antitumor activity of compounds was measured in mice bearing transplantable tumors. Survival or tumor size were measured and the results are expressed as the measurement made in the treated group (T) divided by the measurement made in the vehicle treated control group (C). The tumor model used in this assay is P388 Leukemia (intraperitoneal) in B6D2F1 (BDF1) mice
Inconclusive results and toxic doses are left out.

Sample answers from the record:
- O=[N+]([O-])c1cccc(OCCOc2ccc(S(=O)(=O)F)cc2)c1: 100 % of control
- ON=C(Cc1ccccc1)Cc1ccccc1: 109 % of control

Recall and state the measured T/C for O=C1N=C2C=CC=CN2C(=O)C1Cc1ccccc1 (stereo not drawn) . 104 % of control

###

tested on: BDF1 mice, P388 leukemia ip, median survival T/C; experiment: NCI In Vivo Anticancer Drug Screen. Data for tumor model P388 Leukemia (intraperitoneal) in B6D2F1 (BDF1) mice; details: endpoint: median survival time; dose: 100.0 mg/kg/injection; schedule: Q04DX003 (ip); vehicle: saline with Tween-80
Inconclusive results and toxic doses are left out. How the source made its calls: active means survival T/C of 150% or more; inactive means T/C below 125% in these data.
Entry note: the call must match one of active, inactive

Illustrative cases are given below, each with its answer.
• COc1cc(OC)c(OC)cc1/C=N/Nc1ccc(C(=O)O)cc1 = inactive
• CC(C)=CCNc1ncnc2c1ncn2C1OC(CO)C(O)C1O (stereo unspecified) = inactive
• COc1cccc(CCNC(=O)CC#N)c1 = inactive

Hi, do you know how NC(=S)c1ccncc1 came out in this test? inactive

Hi, do you know how CC(=O)OCc1cc2ccccc2nc1C came out in this test? inactive

Hi, do you know how CCCCCCCCCCCCCCCCCCNC(=O)Nc1ccc(CC)cc1 came out in this test? inactive

Hi, do you know how Cc1ccc(C(C#N)Nc2ccccc2)cc1 (stereo unspecified) came out in this test? inactive

Hi, do you know how O=C(Nc1cccc2c1N(C(=O)c1ccco1)CCC2)c1ccco1 came out in this test? inactive

###

system: BDF1 mice, P388 leukemia ip, median survival T/C; assay: NCI In Vivo Anticancer Drug Screen. Data for tumor model P388 Leukemia (intraperitoneal) in B6D2F1 (BDF1) mice; settings: endpoint: median survival time; dose: 400.0 mg/kg/injection; schedule: Q01DX009 (ip); vehicle: saline; higher = longer survival
Inconclusive results and toxic doses are left out.
MEASURED_ENDPOINT: T/C

- BrC1C2CC(c3ccccc32)C1Br (stereo not drawn): 109 % of control
- CCCN1c2c(nc(N)[nH]c2=O)NCC1CNc1ccc(C(=O)NC(CCC(=O)O)C(=O)O)cc1 (stereo not drawn): 110 % of control

Required: T/C, one value per compound below.
1. Cc1nn(-c2ccccc2)c(N)c1C#N
2. O=S(=O)(O)c1ccc(CCCCCCl)cc1
3. Cc1nc2ccc(O)cc2cc1CO

1. 105 % of control
2. 110 % of control
3. 111 % of control

Required: T/C, one value per compound below.
1. COc1ccc(C=NCCc2ccc(OC)c(OC)c2)cc1OC
2. COc1ccc(CN(C(C)=O)c2cc(C)c([N+](=O)[O-])cc2OC)cc1OC

105 % of control
100 % of control

Recall and state the measured T/C for O=P(CCCl)(OCCCl)N1CCCCC1 (stereo not drawn) . 109 % of control
